# System: Yap1 mRNA
# TEST_METHOD_NOTES: Antisense inhibition of human Yap1 in SNU-449 cells by modified oligonucleotides, single dose (Example 5, RTS36584)
# Format: cell-based
# PARTICULARS: Table 43 experiment; SNU-449 cells, 10,000 cells per well, free uptake, 2,000 nM, approximately 48 hours; RTS36584; Yap1 mRNA normalized to RIBOGREEN, relative to untreated control cells
Strand notation (5' to 3'): a small letter for the sugar, then the base; units joined by * are phosphorothioate-linked, units joined directly phosphodiester-linked; [ ] holds rarer units or linkages, { } end groups; capitals alone tell only the bases. e = 2'-O-(2-methoxyethyl) (MOE); k = constrained ethyl (cEt); [5mC] = 5-methylcytosine; d = 2'-deoxy (DNA)
Catalogue of substances with associated YAP1 (% UTC)
Output spec: scalar in % UTC, unitless text.

Below, 5 substances whose answers are already recorded.
>  <SUBSTANCE>
1198463 (antisense kA*kT*dG*dG*dA*dA*dA*dT*dT*dG*dT*e[5mC]*kT*e[5mC]*kA*eT) [Compound 1198463]

>  <TARGET_DESC>
Yap1 mRNA

>  <ENDPOINT_NAME>
YAP1 (% UTC)

>  <MEASUREMENT>
59

$$$$
>  <SUBSTANCE>
1198251 (kT*k[5mC]*dT*dT*dA*dT*dA*dT*dG*dG*dT*eT*eT*eT*kG*kT; antisense) [Compound 1198251]

>  <TARGET_DESC>
Yap1 mRNA

>  <ENDPOINT_NAME>
YAP1 (% UTC)

>  <MEASUREMENT>
83

$$$$
>  <SUBSTANCE>
1198248 (kA*kT*dA*dT*dG*dG*dT*dT*dT*dT*dG*eT*eG*eT*kG*kT; antisense) [Compound 1198248]

>  <TARGET_DESC>
Yap1 mRNA

>  <ENDPOINT_NAME>
YAP1 (% UTC)

>  <MEASUREMENT>
64

$$$$
>  <SUBSTANCE>
1198216 (kT*kA*dT*dA*dA*d[5mC]*dT*dG*dG*dG*d[5mC]*eA*eA*eA*kT*kT; antisense) [Compound 1198216]

>  <TARGET_DESC>
Yap1 mRNA

>  <ENDPOINT_NAME>
YAP1 (% UTC)

>  <MEASUREMENT>
89

$$$$
>  <SUBSTANCE>
1198219 (kG*kA*dG*dG*dT*dA*dT*dA*dA*d[5mC]*dT*eG*eG*eG*k[5mC]*kA; antisense) [Compound 1198219]

>  <TARGET_DESC>
Yap1 mRNA

>  <ENDPOINT_NAME>
YAP1 (% UTC)

>  <MEASUREMENT>
22

$$$$

Below: the item to evaluate.
What does the record list as YAP1 (% UTC) for 1198242 (kA*kT*dT*dT*dA*dG*dG*dA*dT*dG*d[5mC]*eA*eT*eG*kG*kT; antisense) [Compound 1198242] ?
47
